src = patent US20260224688A1

- Assay Protocol: Dynamic light scattering of lipid nanoparticles (size, PDI)
- Format: physicochemical
- Assay Conditions: LNP with cationic lipid CL-B
Measured Parameter: Size (nm)
Response body: numeric value in nm, unit text excluded.

The following molecules have reported results that may help.
Q: Give its Size value. Item: CCCCCCCCOC(=O)CCCCCCCC(=O)OCC(COP(=O)(O)OCCN(C)C)OC(=O)CCCCCCCC(=O)OCCCCCCCC (stereo not drawn)
A: 88.2

Q: Entry under review: CCCCCCCCC(CCCCCCCC)OC(=O)CCCCCCCC(=O)OCC(COP(=O)(O)OCCN(C)C)OC(=O)CCCCCCCC(=O)OC(CCCCCCCC)CCCCCCCC (stereo not drawn) . Reported Size?
A: 108.1

Next molecule, Size to be filled in.
Q: // returns reported Size for input CCCCCCCCCCC(CCCCCCCCCC)OC(=O)CCCCCCC(=O)OCC(COP(=O)(O)OCCN(C)C)OC(=O)CCCCCCC(=O)OC(CCCCCCCCCC)CCCCCCCCCC (stereo not drawn)
A: 112.7
